Hello, the source for this data is patent US10301294B2, in case you need it.

Task for the reader: assign each of the following compounds its reported IC90.
- Tested on: replicating M. tuberculosis H37Rv
- measurement-protocol: microbe, parasite or virus in culture
- Assay type: cell-based
- experimental-setup: Mycobacterium tuberculosis, H37RV, None = inhibition did not reach 90%, read-out: Against Replicating Mtb IC90 (uM, GFP)
Answers are plain numbers, in µM.

Fc1ccc(CCSc2nnc(-c3ccccc3)o2)cc1	250
OCCn1cc(CSc2nnc(-c3ccc(Cl)cc3)o2)nn1	62
[N-]=[N+]=NCCOCCNC(=O)c1ccc(C[S+]([O-])c2nnc(-c3ccc(Cl)cc3)o2)nc1 (stereo not drawn)	250
[N-]=[N+]=NCCOCCNC(=O)CCCOc1ccc(C[S+]([O-])c2nnc(-c3ccc(Cl)cc3)o2)nc1 (stereo not drawn) [drawing 240]	250
COc1ccc(-c2nnc(SCc3ccccn3)o2)cc1	62

Query (compound): CCSc1nnc(-c2ccccc2)o1 ; field requested: IC90
200

====

Task for the reader: assign each of the following molecules its reported IC99.
- Test system: carbon-starved M. tuberculosis H37Rv
- measurement-protocol: Non-replicating IC90 determination by luciferase (carbon-starved cells)
- Format: cell-based
- experimental-setup: Mycobacterium tuberculosis, H37RV, 120 h; luciferase; None = inhibition did not reach 99%; read-out: Against carbon starved non-replicating Mtb IC99 (uM, luciferase)
Numbers only, in µM.

COC(=O)CCCOc1ccc(-c2nnc(SCc3ccccn3)o2)cc1	250
COCCSc1nnc(-c2ccc(C)cc2)o1	31
COCCS(=O)(=O)c1nnc(-c2ccc(Cl)cc2)o1	250

Hi there! I need IC99 for each item below, if you can.
1. Oc1cccc(-c2nnc(SCc3ccccn3)o2)c1
2. COC(=O)c1ccc(CSc2nnc(-c3ccc(Cl)cc3)o2)nc1
3. [N-]=[N+]=NCCOCCNC(=O)CCCOc1ccc(C[S+]([O-])c2nnc(-c3ccc(F)cc3)o2)nc1 (stereo not drawn)

[62, 16, 31]

====

- Tested on: replicating M. tuberculosis H37Rv
- measurement-protocol: microbe, parasite or virus in culture
- Format: cell-based
- experimental-setup: Mycobacterium tuberculosis, H37RV, three independent experiments in triplicate, read-out: TB Growth Inhibition Activity, IC90 Replicating_logarithmic (converted)
Would you kindly list log10 of IC90 for each of these compounds?
Remember, log10 of IC90, in µM.

Example results:
Fc1cccc(-c2nnc(SCc3ccccc3)o2)c1	2.10
c1ccc(CSc2nnc(C3CCCC3)o2)cc1	2.10
Fc1ccc(-c2nnc(SCc3ccccc3)o2)cc1	2.10
COc1ccccc1-c1nnc(SCc2ccccc2)o1	2.40
c1ccc(CCc2nnc(SCc3ccccc3)o2)cc1	2.40

Would you mind listing log10 of IC90 for each of the following compounds?
1. Fc1ccccc1-c1nnc(SCc2ccccc2)o1
2. c1ccc(CSc2nnc(-c3ccccc3)o2)cc1
3. Clc1ccccc1-c1nnc(SCc2ccccc2)o1

[2.10, 1.79, 2.40]

Provide the reported log10 of IC90 of each entry below, same order.
1. FC(F)(F)c1ccccc1-c1nnc(SCc2ccccc2)o1
2. O=S(=O)(Cc1ccccc1)c1nnc(-c2ccccc2)o1 [drawing 80]

1: 2.70; 2: 2.10

Below is a list of compounds. For each, state its recorded log10 of IC90.
1. c1ccc(CSc2nnc(C3CCCCC3)o2)cc1
2. Fc1cccc(CSc2nnc(-c3ccccc3)o2)c1
3. c1ccc(-n2cc(CSc3nnc(C4CCC4)o3)nn2)cc1
4. Clc1ccc(-c2nnc(SCc3ccccc3)o2)cc1
5. c1ccc(-c2nnc(SCc3ncco3)o2)cc1
6. c1ccc(CSc2nnc(-c3cscn3)o2)cc1
7. c1ccc(CSc2nnc(-c3cccnc3)o2)cc1

2.10
2.40
1.79
2.70
1.49
2.10
2.10

====

- Tested on: replicating M. tuberculosis H37Rv
- measurement-protocol: microbe, parasite or virus in culture
- Format: cell-based
- experimental-setup: Mycobacterium tuberculosis, H37RV, None = inhibition did not reach 90%, read-out: Against Replicating Mtb IC90 (uM, GFP)
I'd appreciate it if you could supply IC90 values for the items below.
One number for each entry, in µM.

Below: 8 molecules and their reported IC90.
[O-][S+](Cc1cn(Cc2ccccc2)nn1)c1nnc(-c2ccc(Cl)cc2)o1 (stereo not shown) [drawing 223]	62
CS(=O)(=O)c1nnc(-c2ccc(Cl)cc2)o1	125
c1ccc(-c2nnc(SCc3ccncc3)o2)cc1 [drawing 179]	250
Clc1ccc(-c2nnc(SCCC3OCCCO3)o2)cc1	62
Oc1cccc(-c2nnc(SCc3ccccn3)o2)c1	125
[N-]=[N+]=NCCCOc1ccc(C[S+]([O-])c2nnc(-c3ccc(F)cc3)o2)nc1 (stereo not shown)	31
Clc1ccc(-c2nnc(SCc3ccccn3)o2)cc1	62
COc1ccc(C[S+]([O-])c2nnc(-c3ccc(F)cc3)o2)nc1 (stereo not shown)	31

For every item in the list below, what is its measured IC90?
1. Cc1cccc(CSc2nnc(-c3ccc(Cl)cc3)o2)n1
2. Fc1ccc(CSc2nnc(-c3ccccc3)o2)cc1 [drawing 172]

62
125

Give IC90 for each listed item.
1. Fc1cccc(-c2nnc(SCc3ccccn3)o2)c1 [drawing 216]
2. Clc1ccc(-c2nnc(NCc3ccccn3)o2)cc1

[31, 500]

For each of the molecules below, state IC90.
1. CC(C)(C)c1ccc(CSc2nnc(-c3ccc(Cl)cc3)o2)cc1
2. [O-][S+](Cc1ccccn1)c1nnc(-c2ccc(Cl)cc2)o1 (stereo not shown) [drawing 195]
3. CS(=O)(=O)c1nnc(-c2ccccc2)o1

1: 250; 2: 31; 3: 250

====

- Tested on: replicating M. tuberculosis H37Rv
- measurement-protocol: microbe, parasite or virus in culture
- Assay type: cell-based
- experimental-setup: Mycobacterium tuberculosis, H37RV, None = inhibition did not reach 90%, read-out: Against Replicating Mtb IC90 (uM, GFP)
endpoint-name: IC90 (µM)
Numbers only, in µM.

Answered examples (5):
Cc1ccc(-c2nnc(SCc3ccccn3)o2)cc1	31
C#CCCCOc1ccc(C[S+]([O-])c2nnc(-c3ccc(F)cc3)o2)nc1 (stereo not shown)	31
[O-][S+](Cc1ccccc1)c1nnc(-c2ccccc2)o1 (stereo not shown) [drawing 213]	125
[N-]=[N+]=NOCCNC(=O)CCCOc1ccc(-c2nnc([S+]([O-])Cc3ccccn3)o2)cc1 (stereo not shown)	125
OCC#CCSc1nnc(-c2ccc(Cl)cc2)o1	62

Below are some compounds; for each one, tell me its IC90.
1. COc1ccc(CSc2nnc(-c3ccc(Cl)cc3)o2)nc1 [drawing 228]
2. CCCCCCCCCCCCSc1nnc(-c2ccccc2)o1
3. [N-]=[N+]=NCCOCCNC(=O)CCCOc1ccc(CSc2nnc(-c3ccc(F)cc3)o2)nc1
4. C#CCOc1ccc(-c2nnc([S+]([O-])Cc3ccccn3)o2)cc1 (stereo not shown)

1: 31; 2: 125; 3: 125; 4: 31

====

- Tested on: replicating M. tuberculosis H37Rv
- measurement-protocol: microbe, parasite or virus in culture
- Type: cell-based
- experimental-setup: Mycobacterium tuberculosis, H37RV, None = inhibition did not reach 90%, read-out: Against Replicating Mtb IC90 (uM, GFP)
endpoint-name: IC90 (µM)
Numbers only, in µM.

Example cases with answers are listed next.
[N-]=[N+]=NCCCOc1ccc(CSc2nnc(-c3ccc(F)cc3)o2)nc1	31
c1ccc(-c2nnc(SCCC3OCCCO3)o2)cc1 [drawing 168]	125
CCOC(=O)CSc1nnc(-c2ccccc2)o1	500
Brc1ccc(-c2nnc(SCc3ccccn3)o2)cc1 [drawing 212]	31
COCCSc1nnc(-c2ccc(Cl)cc2)o1	50

# next molecule below
Using the record for c1ccc(-c2nnc(SCC3CC3)o2)cc1 , report its IC90.
125

====

- System: replicating M. tuberculosis H37Rv
- measurement-protocol: microbe, parasite or virus in culture
- Format: cell-based
- experimental-setup: Mycobacterium tuberculosis, H37RV, three independent experiments in triplicate, read-out: TB Growth Inhibition Activity, IC90 Replicating_logarithmic (converted)
Give measured IC90 for each item. Keep answers brief.
One number for each entry, in µM.

CN(Cc1ccccc1)c1nnc(-c2ccccc2)o1	250
c1ccc(CCc2nnc(-c3ccccc3)o2)cc1	250
CN(C)CCSc1nnc(-c2ccccc2)o1	500

State recorded IC90 for all listed molecules.
1. FC(F)(F)c1cccc(CSc2nnc(-c3ccccc3)o2)c1
2. c1ccc(-c2nnc(SCc3ccccn3)o2)cc1 [drawing 142]
3. Fc1ccccc1CSc1nnc(-c2ccccc2)o1
4. FC(F)(F)Oc1cccc(-c2nnc(SCc3ccccc3)o2)c1
5. Cc1ccccc1CSc1nnc(-c2ccccc2)o1

1. 250
2. 100
3. 250
4. 250
5. 250

Batch: IC90 for all items listed.
1. CS(=O)(=O)c1cccc(CSc2nnc(-c3ccccc3)o2)c1
2. c1ccc(CSc2nnc(Cc3ccccc3)o2)cc1

250
500

Answer for every listed entry: what is its IC90? The entries follow.
1. FC(F)(F)Oc1ccccc1CSc1nnc(-c2ccccc2)o1
2. Cc1ccc(-c2nnc(SCc3ccccc3)o2)cc1
3. CS(=O)(=O)c1ccccc1-c1nnc(SCc2ccccc2)o1
4. c1ccc(CSc2nnc(-c3ccccn3)o2)cc1
5. Clc1ccccc1CSc1nnc(-c2ccccc2)o1
6. CC(C)c1nnc(SCc2ccccc2)o1

1. 500
2. 125
3. 500
4. 125
5. 250
6. 125

Provide IC90 for all items below, preserving their order.
1. c1ccc(-c2nnc(SCc3ccncc3)o2)cc1 [drawing 144]
2. FC1(F)CN(CCSc2nnc(-c3ccccc3)o2)C1
3. COc1cccc(-c2nnc(SCc3ccccc3)o2)c1

1: 250; 2: 250; 3: 250
